# TGT: human ether-à-go-go-related gene (hERG) potassium channel (human, UniProt Q12809)
# Sequence (Q12809 whole entry, looked up): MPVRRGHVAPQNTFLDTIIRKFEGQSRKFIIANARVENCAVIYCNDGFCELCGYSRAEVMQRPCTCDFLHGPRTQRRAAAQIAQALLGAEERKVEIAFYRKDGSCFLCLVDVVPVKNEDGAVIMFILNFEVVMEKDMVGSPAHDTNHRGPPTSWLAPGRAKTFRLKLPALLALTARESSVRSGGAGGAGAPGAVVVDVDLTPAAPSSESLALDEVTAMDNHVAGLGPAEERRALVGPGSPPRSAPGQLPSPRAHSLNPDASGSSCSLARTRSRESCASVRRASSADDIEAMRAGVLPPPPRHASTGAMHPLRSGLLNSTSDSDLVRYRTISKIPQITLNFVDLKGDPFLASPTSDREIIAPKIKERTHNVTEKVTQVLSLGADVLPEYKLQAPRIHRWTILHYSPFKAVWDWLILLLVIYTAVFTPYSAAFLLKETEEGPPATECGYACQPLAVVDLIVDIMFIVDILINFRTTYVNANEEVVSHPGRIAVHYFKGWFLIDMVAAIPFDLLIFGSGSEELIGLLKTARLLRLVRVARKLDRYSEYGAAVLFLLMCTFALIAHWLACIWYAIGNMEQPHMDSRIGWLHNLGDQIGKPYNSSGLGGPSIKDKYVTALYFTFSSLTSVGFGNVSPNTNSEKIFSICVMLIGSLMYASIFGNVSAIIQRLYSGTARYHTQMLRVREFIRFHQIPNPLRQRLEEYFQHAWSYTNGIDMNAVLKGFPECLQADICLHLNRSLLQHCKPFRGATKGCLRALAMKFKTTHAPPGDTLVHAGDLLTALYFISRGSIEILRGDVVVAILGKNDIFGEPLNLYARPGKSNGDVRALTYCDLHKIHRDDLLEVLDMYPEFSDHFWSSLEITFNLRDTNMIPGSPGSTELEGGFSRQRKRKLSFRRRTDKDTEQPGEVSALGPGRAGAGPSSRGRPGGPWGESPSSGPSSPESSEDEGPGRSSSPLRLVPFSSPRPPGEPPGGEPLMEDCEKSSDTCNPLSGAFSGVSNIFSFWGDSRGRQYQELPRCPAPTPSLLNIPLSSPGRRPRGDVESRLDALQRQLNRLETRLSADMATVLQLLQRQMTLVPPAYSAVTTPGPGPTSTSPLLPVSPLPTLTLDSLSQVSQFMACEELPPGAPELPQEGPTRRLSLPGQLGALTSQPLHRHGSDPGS
# TEST_SUMMARY: primary screen, population patch clamp on CHO cells stably expressing hERG; higher = less effect of the substance
In all, about 310,000 compounds went through this assay and about 2,200 (0.71%) showed an effect of 50% or more. The effect is printed as a negative number. The list comes from a sample in which strong results are over-represented; it also holds close analogues and randomly drawn compounds.
QUANTITY_MEASURED: hERG current change (%, negative = inhibition) at 1uM (%)
The response must be a number in % with no trailing unit.

COc1ccc(COc2ccsc2C(=O)Nc2ccc(Cl)c(Cl)c2)cc1 | 13.6
CCc1ccc(Nc2ncc3c(n2)CC(c2ccco2)CC3=O)cc1 (stereo not shown) | 5.43
CCOC(=O)c1ccc(NC(=S)N(CCCN2CCCCC2)Cc2ccco2)cc1 | -71.3
CC(C)Oc1cccc(C(=O)C2CCCN(C3CCOCC3)C2)c1 (stereo not shown) | -5.96

Prompt line: Field request: hERG current change (%, negative = inhibition) at 1uM | item: CCCC(=O)N1CCCC(C(=O)c2cccc(OC(C)C)c2)C1 (stereo not shown)
Response line: 9.81

Prompt line: Field request: hERG current change (%, negative = inhibition) at 1uM | item: O=C(Nc1ccc(SC(F)F)cc1)C12CCC(CC1)C2
Response line: 5.66

Prompt line: Field request: hERG current change (%, negative = inhibition) at 1uM | item: CC1CCCN(C(=O)Cn2nnc(-c3ccc(S(C)(=O)=O)cc3)n2)C1 (stereo not shown)
Response line: 21.2

Prompt line: Field request: hERG current change (%, negative = inhibition) at 1uM | item: c1ccc(C(c2nnnn2Cc2ccco2)N2CCN(c3nc4ccccc4s3)CC2)cc1 (stereo not shown)
Response line: 8.1

Prompt line: Field request: hERG current change (%, negative = inhibition) at 1uM | item: CCOC(=O)c1ccc(NC(=S)N(CCCN2CCCC(C)C2)Cc2ccco2)cc1 (stereo not shown)
Response line: -42.8

Prompt line: Field request: hERG current change (%, negative = inhibition) at 1uM | item: CC1(c2ccc3ccccc3c2)NC(=O)N(CC(=O)Nc2ncccc2O)C1=O (stereo not shown)
Response line: 14.4

Prompt line: Field request: hERG current change (%, negative = inhibition) at 1uM | item: O=Cc1cn(Cc2ccc(F)cc2)c2ccccc12
Response line: 14.4

Prompt line: Field request: hERG current change (%, negative = inhibition) at 1uM | item: CCOC(=O)c1ccc(NC(=S)N(CCCN2CCN(CC)CC2)Cc2ccco2)cc1
Response line: -45.4

Prompt line: Field request: hERG current change (%, negative = inhibition) at 1uM | item: CC1CCN(CCCn2c(SCC(=O)NC3CCCC3)nc3ccccc3c2=O)CC1
Response line: -64.8

Prompt line: Field request: hERG current change (%, negative = inhibition) at 1uM | item: S=C(Nc1ccc(Cl)cc1)N(CCCN1CCOCC1)Cc1ccco1
Response line: -8.98

Prompt line: Field request: hERG current change (%, negative = inhibition) at 1uM | item: CSc1cccc(NS(=O)(=O)c2ccc(F)cc2)c1
Response line: 7.73

Prompt line: Field request: hERG current change (%, negative = inhibition) at 1uM | item: Cc1nc2cc3nc(C)sc3cc2s1
Response line: 3.19

Prompt line: Field request: hERG current change (%, negative = inhibition) at 1uM | item: COc1ccc(NC(=O)CSc2nc3ccccc3c(=O)n2CCCN2CCOCC2)c(OC)c1
Response line: 1.25

Prompt line: Field request: hERG current change (%, negative = inhibition) at 1uM | item: CCN1CCN(CCCN(Cc2ccco2)C(=S)Nc2ccc(Cl)cc2)CC1
Response line: -18.6

Prompt line: Field request: hERG current change (%, negative = inhibition) at 1uM | item: Cc1ccc(NC2CCCN(C(=O)c3ccc(-n4ccnc4)cc3)C2)cc1C (stereo not shown)
Response line: -4.71

###

# TGT: human ether-à-go-go-related gene (hERG) potassium channel (human, UniProt Q12809)
# TEST_SUMMARY: primary screen, population patch clamp on CHO cells stably expressing hERG; higher = less effect of the substance
The whole screen tested about 310,000 compounds, of which about 2,200 (0.71%) showed an effect of 50% or more. Effects have a minus sign here. Shown is part of a subset that was picked to be rich in strong results.
QUANTITY_MEASURED: hERG current change (%, negative = inhibition) at 1uM (%)
The response must be a number in % with no trailing unit.

CCN1CCN(c2ccc(NC(=O)c3cccc(F)c3)cc2Cl)CC1 | -8.27
CCOc1cccc(C2/C(=C(/O)c3ccc4c(c3)CC(C)O4)C(=O)C(=O)N2Cc2cccnc2)c1 (stereo not shown) | 18.4
COc1cc(OC)cc(C(=O)OCC(=O)N(C)c2ccccc2)c1 | 9.32
O=S1(=O)CCC(NCC2CCCO2)C1 (stereo not shown) | 12.9
COc1ccc(OCC(=O)Nc2ccc(N3CCN(C(=O)c4ccccc4)CC3)c(Cl)c2)cc1 | 9.86
O=S(=O)(c1ccccc1)N1CCN(C2CCN(Cc3ccccc3)CC2)CC1 | -64.1

Prompt line: Field request: hERG current change (%, negative = inhibition) at 1uM | item: CCN1CCN(c2ccc(NC(=O)c3ccc(F)cc3)cc2Cl)CC1
Response line: -66.8

Prompt line: Field request: hERG current change (%, negative = inhibition) at 1uM | item: COCCNC(=S)NC12CC3CC(CC(C3)C1)C2
Response line: 11.3

Prompt line: Field request: hERG current change (%, negative = inhibition) at 1uM | item: CCCCCC(=O)Nc1ccc(N2CCN(CC)CC2)c(Cl)c1
Response line: -55.6

Prompt line: Field request: hERG current change (%, negative = inhibition) at 1uM | item: CCCOc1ccc(C(=O)N2CCN(c3ccc(NC(=O)CC)cc3Cl)CC2)cc1
Response line: -58.7

###

# TGT: human ether-à-go-go-related gene (hERG) potassium channel (human)
# TEST_SUMMARY: primary screen, population patch clamp on CHO cells stably expressing hERG; higher = less effect of the substance
Out of some 310,000 compounds screened, about 2,200 (0.71%) showed an effect of 50% or more. Effects have a minus sign here. Only a selection was taken, and strong results are over-represented in it overall.
QUANTITY_MEASURED: hERG current change (%, negative = inhibition) at 1uM (%)
The response must be a number in % with no trailing unit.

Sample answers from the record:
COc1cccc(N2CCN(S(=O)(=O)c3c(C)[nH]c(C)c3C(=O)N3CCCCC3)CC2)c1 | 15.2
COc1ccc2c(c1OC)C(=O)OC2C1c2c(cc3c(c2OC)OCO3)CCN1C.Cl (stereo not drawn) | 9.06
CCCSC1=C(C#N)C(c2ccc(Cl)cc2Cl)CC(=O)N1 (stereo not drawn) | 11.8
CCN(CC(=O)NCc1ccc(Cl)cc1)C(=O)NCc1ccc(Cl)cc1 | -54.1

Prompt line: Field request: hERG current change (%, negative = inhibition) at 1uM | item: O=C(/C=C/c1ccc(F)cc1)Nc1cc(S(=O)(=O)N2CCOCC2)ccc1N1CCCC1
Response line: -60.3

Prompt line: Field request: hERG current change (%, negative = inhibition) at 1uM | item: Cc1nc(OCc2c(C)noc2C)c2ccccc2n1
Response line: 13.1

Prompt line: Field request: hERG current change (%, negative = inhibition) at 1uM | item: COc1cc(S(=O)(=O)Nc2ncn[nH]2)ccc1Cl
Response line: 13.5

Prompt line: Field request: hERG current change (%, negative = inhibition) at 1uM | item: Cc1cc(NC(=O)Cc2ccccc2C)no1
Response line: 10.2

Prompt line: Field request: hERG current change (%, negative = inhibition) at 1uM | item: O=C(NCCN1CCN(C(=O)c2ccc([N+](=O)[O-])cc2)CC1)C(=O)NCc1ccccc1
Response line: -85.9

Prompt line: Field request: hERG current change (%, negative = inhibition) at 1uM | item: CCN(CC(=O)NCc1ccc(F)cc1)C(=O)c1ccc(Cl)cc1
Response line: -2.66

Prompt line: Field request: hERG current change (%, negative = inhibition) at 1uM | item: Cc1ccc(S(=O)(=O)N2CCN(c3ccccc3)CC2)cc1C
Response line: 12.5

Prompt line: Field request: hERG current change (%, negative = inhibition) at 1uM | item: COc1ccc(C2c3c(oc4ccc(Cl)cc4c3=O)C(=O)N2CCN2CCOCC2)cc1 (stereo not drawn)
Response line: -24

Prompt line: Field request: hERG current change (%, negative = inhibition) at 1uM | item: CCN(CC(=O)NCc1ccc(Cl)cc1)C(=O)CCc1ccccc1
Response line: -19.8

Prompt line: Field request: hERG current change (%, negative = inhibition) at 1uM | item: CCOC(=O)/C=C1\SCC(=O)N1CC(=O)Nc1ccc(OC)c(OC)c1
Response line: 12.2

Prompt line: Field request: hERG current change (%, negative = inhibition) at 1uM | item: O=C(O)CSC1=NC(=Nc2cccc(Cl)c2)C2(CCCCC2)N1c1ccccc1
Response line: 19.9

Prompt line: Field request: hERG current change (%, negative = inhibition) at 1uM | item: COc1cc(F)cc(-c2ccc3c(c2)c(-c2cccs2)c(-c2cc(OC)cc(OC)c2)n3C)c1
Response line: 12.5

Prompt line: Field request: hERG current change (%, negative = inhibition) at 1uM | item: CC(C)(C)c1ccc(C(=O)N2CCN(CCNC(=O)C(=O)NCc3ccccc3)CC2)cc1
Response line: -8.22

Prompt line: Field request: hERG current change (%, negative = inhibition) at 1uM | item: CSc1ccc(-c2nc3cnccn3c2Nc2ccc3c(c2)OCO3)cc1
Response line: 9.9
